target-of-assay: K-Ras G12C (Homo sapiens, UniProt P01116, G12C)
measurement-description: K-Ras G12C, SOS1, Raf RBD HTRF assay for inhibition of GTP exchange
run-parameters: 18 hours preincubation with K-Ras G12C at room temperature; SOS1-mediated GTP exchange
Sequence (P01116 2-188 isoform P01116-2 G12C): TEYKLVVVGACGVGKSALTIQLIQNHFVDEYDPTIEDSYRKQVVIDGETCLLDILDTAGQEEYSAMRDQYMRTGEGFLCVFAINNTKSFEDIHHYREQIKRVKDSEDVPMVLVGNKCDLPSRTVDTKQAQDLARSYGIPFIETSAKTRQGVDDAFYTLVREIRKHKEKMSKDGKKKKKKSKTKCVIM
Could you please mark T for values of IC50 below 700 nM and F for values at or above it?

Task item: Strictly below 700 nM in IC50? C=CC(=O)N1CCN(c2nc(OC[C@@H]3CCCN3C)nc3c2C[C@H](C)[C@@H](c2c(C)c(C)cc(N)c2F)C3)[C@@H](C)C1 (single isomer, unassigned) [Example 11a]
Reply: F

Task item: Strictly below 700 nM in IC50? C=CC(=O)N1CCN(c2nc(OC[C@@H]3C[C@@H](F)CN3C)nc3c2C[C@H](C)[C@@H](c2c(F)c(N)cc(C)c2C(F)(F)F)C3)[C@@H](C)C1 (single isomer, unassigned) [Example 36a]
Reply: T

Task item: Strictly below 700 nM in IC50? C=CC(=O)N1CCN(c2nc(OC[C@@H]3CCCN3C)nc3c2C[C@@H](C)[C@H](c2c(C)c(C)cc(N)c2F)C3)[C@@H](C)C1 (single isomer, unassigned) [Example 11b]
Reply: T

Task item: Strictly below 700 nM in IC50? C=CC(=O)N1CCN(c2ncnc3c2CC[C@H](c2cncc4ccccc24)C3)CC1 (single isomer, unassigned) [Example 44b]
Reply: F

Task item: Strictly below 700 nM in IC50? C=C(F)C(=O)N1CCN(c2nc(OC[C@@H]3CCCN3C)nc3c2CC(C)C(c2c(F)c(N)cc(C)c2C(F)(F)F)C3)CC1CC#N (single isomer, unassigned) [Example 34d]
Reply: T

Task item: Strictly below 700 nM in IC50? C=CC(=O)N1CCN(c2ncnc3c2CC(C)C(c2cc(O)cc4ccccc24)C3)CC1 (stereo not drawn) [Example 39]
Reply: T

Task item: Strictly below 700 nM in IC50? C=CC(=O)N1CCN(c2nc(OC[C@@H]3C[C@@H](F)CN3C)nc3c2C[C@@H](C)[C@H](c2c(F)c(N)cc(C)c2C(F)(F)F)C3)[C@@H](C)C1 (single isomer, unassigned) [Example 36b]
Reply: T

Task item: Strictly below 700 nM in IC50? C=CC(=O)N1CCN(c2nc(OCCCN3CCOCC3)nc3c2CCC(c2cc(O)cc4ccccc24)C3)[C@@H](C)C1 (stereo partly drawn) [Example 53a]
Reply: T

Task item: Strictly below 700 nM in IC50? C=CC(=O)N1CCN(c2nc(OC[C@@H]3CCCN3C)nc3c2CCC(c2cc(O)cc4ccccc24)C3)[C@@H](CO)C1 (single isomer, unassigned) [Example 29a]
Reply: T

Task item: Strictly below 700 nM in IC50? C=CC(=O)N1CCN(c2ncnc3c2CCC(c2c(C)ccc4[nH]ncc24)C3)CC1 (racemic) [Example 2]
Reply: F

Task item: Strictly below 700 nM in IC50? C=CC(=O)Oc1cc(C2CCc3c(nc(OC[C@@H]4CCCN4C)nc3N3CCN(C(=O)C=C)C(CC#N)C3)C2)c2ccccc2c1 (stereo partly drawn) [Example 59a]
Reply: T

###

target-of-assay: K-Ras G12C (Homo sapiens, UniProt P01116, G12C)
measurement-description: K-Ras G12C, SOS1, Raf RBD HTRF assay for inhibition of GTP exchange
run-parameters: 18 hours preincubation with K-Ras G12C at room temperature; SOS1-mediated GTP exchange
endpoint-label: pIC50
Scale: pIC50 equals -log10([C]), with [C] in mol/L.

Task item: Which measured pIC50 value corresponds to C=CC(=O)N1CCN(c2ncnc3c2CCC(c2cc(O)cc4ccccc24)C3)CC1 (stereo not shown) ?
Reply: 6.70

Task item: Which measured pIC50 value corresponds to C=CC(=O)N1CC2(CCN(c3nc(OCC4CCCN4C)nc4c3CCC(c3cc(O)cc5ccccc35)C4)CC2)C1 (stereo not shown) ?
Reply: 7.34

Task item: Which measured pIC50 value corresponds to C=CC(=O)N1CCN(c2ncnc3c2C[C@H](C)[C@@H](c2nc(N)ccc2C(F)(F)F)C3)CC1 (single isomer, unassigned) [Example 42a] ?
Reply: 5.57

Task item: Which measured pIC50 value corresponds to C=CC(=O)N1CCN(c2nc(OC[C@@H]3CCCN3C)nc3c2CC[C@H](c2cc(O)cc4ccccc24)C3)C[C@@H]1CC#N (single isomer, unassigned) [Example 58b] ?
Reply: 6.89

###

Give measured IC50 for each item. Keep answers brief.
target-of-assay: K-Ras G12C (Homo sapiens, UniProt P01116, G12C)
measurement-description: K-Ras G12C, SOS1, Raf RBD HTRF assay for inhibition of GTP exchange
run-parameters: 18 hours preincubation with K-Ras G12C at room temperature; SOS1-mediated GTP exchange
Could you give me the number in nM? Just the number is fine.

Task item: Which measured IC50 value corresponds to C=CC(=O)N1CCN(c2ncnc3c2CCC(c2c(C)ccc4cn[nH]c24)C3)CC1 (stereo not drawn) ?
Reply: 700

Task item: Which measured IC50 value corresponds to C=CC(=O)N1CCN(c2ncnc3c2CC[C@H](c2nc(N)ccc2C(F)(F)F)C3)CC1 (single isomer, unassigned) [Example 46b] ?
Reply: 230

Task item: Which measured IC50 value corresponds to C=C(F)C(=O)N1CCN(c2nc(OC[C@@H]3CCCN3C)nc3c2CC(C)C(c2c(F)c(N)cc(C)c2C(F)(F)F)C3)CC1CC#N (single isomer, unassigned) [Example 34a] ?
Reply: 8900

###

measurement-description: Whole blood stability assay
Assay type: in vitro ADME
run-parameters: fresh whole blood, drug 1 μM, 37° C., 180 minutes incubation
Procedure: Whole Blood Stability Assay A whole blood stability assay was performed using fresh blood with a drug final concentration of 1 μM. The drug-blood mixtures were incubated at 37° C. for 180 minutes.
endpoint-label: half-life at 1 μM

Task item: Which measured half-life at 1 μM value corresponds to C=CC(=O)N1CCN(c2nc(OC[C@@H]3CCCN3C)nc3c2C[C@@H](C)[C@H](c2nc(N)cc(C)c2C(F)(F)F)C3)[C@@H](C)C1 (single isomer, unassigned) [Example 21b] ?
Reply: > 9 h

Task item: Which measured half-life at 1 μM value corresponds to C=C(F)C(=O)N1CCN(c2nc(OC[C@@H]3CCCN3C)nc3c2CC(C)C(c2c(F)c(N)cc(C)c2C(F)(F)F)C3)CC1CC#N (single isomer, unassigned) [Example 34d] ?
Reply: > 9 h

Task item: Which measured half-life at 1 μM value corresponds to C=CC(=O)N1CCN(c2nc(OC[C@@H]3CCCN3C)nc3c2C[C@@H](C)[C@H](c2cc(O)cc4ccccc24)C3)[C@@H](C)C1 (single isomer, unassigned) [Example 22b] ?
Reply: > 9 h

###

target-of-assay: K-Ras G12C (Homo sapiens, UniProt P01116, G12C)
measurement-description: Western blot assay for in cell alkylation of K-Ras G12C (HCC1171 cells)
run-parameters: 18 hours at 37° C., 7 point dose response
Sequence (P01116 1-188 isoform P01116-2 G12C): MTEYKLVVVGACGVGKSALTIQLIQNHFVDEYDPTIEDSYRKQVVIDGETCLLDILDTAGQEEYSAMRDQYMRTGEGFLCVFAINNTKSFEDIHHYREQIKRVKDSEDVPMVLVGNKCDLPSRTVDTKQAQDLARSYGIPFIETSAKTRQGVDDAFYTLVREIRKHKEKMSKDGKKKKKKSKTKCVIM
endpoint-label: EC50 (nM)
Could you give me the number in nM? Just the number is fine.

Task item: Which measured EC50 value corresponds to C=CC(=O)N1CCN(c2nc(OC[C@@H]3C[C@@H](F)CN3C)nc3c2C[C@@H](CC)[C@H](c2c(F)c(N)cc(C)c2C(F)(F)F)C3)[C@@H](C)C1 (single isomer, unassigned) [Example 37a] ?
Reply: 4.5

Task item: Which measured EC50 value corresponds to C=C(F)C(=O)N1CCN(c2nc(OC[C@@H]3CCCN3C)nc3c2CCC(c2cccc4ccccc24)C3)CC1CC#N (single isomer, unassigned) [Example 47a] ?
Reply: 530

Task item: Which measured EC50 value corresponds to C=C(F)C(=O)N1CCN(c2nc(OC[C@@H]3CCCN3C)nc3c2CC[C@H](c2cc(O)cc4ccccc24)C3)C[C@H]1CC#N (single isomer, unassigned) [Example 61b] ?
Reply: 2800

Task item: Which measured EC50 value corresponds to C=CC(=O)N1CCN(c2ncnc3c2CC[C@H](c2c(F)c(N)cc(C)c2C(F)(F)F)C3)CC1 (single isomer, unassigned) [Example 27a] ?
Reply: 340

Task item: Which measured EC50 value corresponds to C=CC(=O)N1C[C@H](C)N(c2nc(OC[C@@H]3CCCN3C)nc3c2CCC(c2cc(O)cc4ccccc24)C3)[C@@H](C)C1 (some centres unmarked) [Example 56a] ?
Reply: 620

Task item: Which measured EC50 value corresponds to C=CC(=O)N1CCN(c2nc(OC[C@@H]3CCCN3C)nc3c2CC[C@@H](c2cc(O)cc4ccccc24)C3)[C@@H](C)C1 (single isomer, unassigned) [Example 28a] ?
Reply: 1000

Task item: Which measured EC50 value corresponds to CN1CCC[C@H]1COc1nc2c(c(N3CCN(C(=O)/C=C/CF)C(CC#N)C3)n1)CCC(c1cc(O)cc3ccccc13)C2 (mixture of isomers) [Example 62a] ?
Reply: 14

Task item: Which measured EC50 value corresponds to C=CC(=O)N1CCN(c2nc(OC[C@@H]3CCCN3C)nc3c2C[C@@H](C)[C@H](c2nc(N)cc(C)c2C(F)(F)F)C3)[C@@H](C)C1 (single isomer, unassigned) [Example 21b] ?
Reply: 6

Task item: Which measured EC50 value corresponds to C=CC(=O)N1CCN(c2nc(OC[C@@H]3CCCN3C)nc3c2C[C@@H](C)[C@H](c2cc(O)cc4ccccc24)C3)[C@@H](C)C1 (single isomer, unassigned) [Example 22b] ?
Reply: 6.1

Task item: Which measured EC50 value corresponds to CN1CCC[C@H]1COc1nc2c(c(N3CCN(C(=O)/C=C/CF)[C@@H](CC#N)C3)n1)CC[C@H](c1cc(O)cc3ccccc13)C2 (single isomer, unassigned) [Example 62c] ?
Reply: 1000

Task item: Which measured EC50 value corresponds to C=CC(=O)N1CCN(c2nc(OCCCN3CCOCC3)nc3c2CCC(c2cc(O)cc4ccccc24)C3)[C@@H](C)C1 (some centres unmarked) [Example 53a] ?
Reply: 230
